mass density listing for selected compounds.
# Test Context: 298.15 K; 101.33 kPa; Liquid; Vibrating tube method

{"Chemical Structure": "CCO", "mass density, kg/m3": 785.5}
{"Chemical Structure": "CCCCCCCC[N+](C)(CCCCCCCC)CCCCCCCC.O=S(=O)([N-]S(=O)(=O)C(F)(F)F)C(F)(F)F", "mass density, kg/m3": 1109.3}
{"Chemical Structure": "CO", "mass density, kg/m3": 786}
{"Chemical Structure": "CCCO", "mass density, kg/m3": 799.4}

----------
mass density listing for selected compounds.
# Test Context: 313.15 K; 101.33 kPa; Liquid; Vibrating tube method
Measured Parameter: mass density (kg/m3)

{"Chemical Structure": "CCCO", "Quantitative Readout": 788.6}
{"Chemical Structure": "CCCCCCCC[N+](C)(CCCCCCCC)CCCCCCCC.O=S(=O)([N-]S(=O)(=O)C(F)(F)F)C(F)(F)F", "Quantitative Readout": 1098.3}
{"Chemical Structure": "CCO", "Quantitative Readout": 773.7}
{"Chemical Structure": "CO", "Quantitative Readout": 774.6}

----------
# Test Context: 303.15 K; 101.33 kPa; Liquid; Vibrating tube method
Measured Parameter: mass density (kg/m3)

{"Chemical Structure": "CCCCCCCC[N+](C)(CCCCCCCC)CCCCCCCC.O=S(=O)([N-]S(=O)(=O)C(F)(F)F)C(F)(F)F", "Quantitative Readout": 1105.1}
{"Chemical Structure": "CO", "Quantitative Readout": 783.4}
{"Chemical Structure": "CCCO", "Quantitative Readout": 796.4}
{"Chemical Structure": "CCO", "Quantitative Readout": 782}
